B1: Dystrobrevin alpha, residues 235 to 294; numbered along this chain, Q9Y4J8 (parent)
chain: ENVFHPVECSYCHSESMMGFRYRCQQCHNYQLCQDCFWRGHAGGSHSNQHQMKEYTSWKS

# Variants of: B1
# assay comment: abundance fitness (aPCA) (normalised: wild type 0, dead -1); higher = more abundant; growth selection in yeast, the domain comes from the species named
# experimental parameters: Homo sapiens
// class assignment uses abundance fitness with these ranges: lower segment (below -0.3), middle segment (-0.3 to below -0.09), upper segment (-0.09 or more)

Example results:
Data request: Entry ENVFHPVECSYCHSESMMGFRYRCQQCHNYQLCQDCFWRGHAGGSHSNQHQMKEYTSDKS belongs to which category?
Data returned: upper segment

Data request: Entry ENVFHPVEVSYCHSESMMGFRYRCQQCHNYQLCQDCFWRGHAGGSHSNQHQMKEYTSWKS belongs to which category?
Data returned: lower segment

Data request: Entry ENVFHPVELSYCHSESMMGFRYRCQQCHNYQLCQDCFWRGHAGGSHSNQHQMKEYTSWKS belongs to which category?
Data returned: lower segment

Data request: Entry ENVFHPVECSYWHSESMMGFRYRCQQCHNYQLCQDCFWRGHAGGSHSNQHQMKEYTSWKS belongs to which category?
Data returned: lower segment

Data request: Entry ENVFHPVECSYCASESMMGFRYRCQQCHNYQLCQDCFWRGHAGGSHSNQHQMKEYTSWKS belongs to which category?
Data returned: middle segment

Next:
Data request: Entry ENVFHPVECSYCHSESMMGFRYRCQQCHNYQLCQDCFWRGFAGGSHSNQHQMKEYTSWKS belongs to which category?
Data returned: upper segment

Data request: Entry ENVFHPVECSPCHSESMMGFRYRCQQCHNYQLCQDCFWRGHAGGSHSNQHQMKEYTSWKS belongs to which category?
Data returned: lower segment

Data request: Entry ENVFHPVECSYCHSESMMGFRYRCQQCWNYQLCQDCFWRGHAGGSHSNQHQMKEYTSWKS belongs to which category?
Data returned: middle segment

Data request: Entry ENMFHPVECSYCHSESMMGFRYRCQQCHNYQLCQDCFWRGHAGGSHSNQHQMKEYTSWKS belongs to which category?
Data returned: upper segment

Data request: Entry ENVFHPVECSYCHSESMMGFRYRCQQCHNYQLCQDCFWRGHAGGSHSNQHQMKEYTSWPS belongs to which category?
Data returned: upper segment

Data request: Entry EFVFHPVECSYCHSESMMGFRYRCQQCHNYQLCQDCFWRGHAGGSHSNQHQMKEYTSWKS belongs to which category?
Data returned: middle segment

Data request: Entry ENVFHPVECSYCHSESMMGFRYRCQQCHNYQLCQDCFWRGHAGGSHSNQHQMKGYTSWKS belongs to which category?
Data returned: middle segment

Data request: Entry ENVFHPVECSYCHSESMMGFRYRCQQCHNYQLCPDCFWRGHAGGSHSNQHQMKEYTSWKS belongs to which category?
Data returned: middle segment

Data request: Entry ENVFHPVEWSYCHSESMMGFRYRCQQCHNYQLCQDCFWRGHAGGSHSNQHQMKEYTSWKS belongs to which category?
Data returned: lower segment

Data request: Entry ENVFHPVECSYCHSESMMGFRYRCQQCHNYQLCQDCFWRGYAGGSHSNQHQMKEYTSWKS belongs to which category?
Data returned: middle segment

Data request: Entry ENVFHPVECSYCHSESMMGFRYRCQQCHNYQLCQDCFWRGHAGGSHANQHQMKEYTSWKS belongs to which category?
Data returned: lower segment

Data request: Entry ENVFHPVECSYCHSESMMGFRYRCQQCHNYQLCQDCFWRGHAGGSHSNQHQMKEYTSWIS belongs to which category?
Data returned: lower segment

Data request: Entry ENVFHPVECSYCHSESMMGFRYRCQQCHNYQLCQDCFWRGHAGGSHSNQIQMKEYTSWKS belongs to which category?
Data returned: lower segment

Data request: Entry ENVFHPVECSYCHSESMMGFRYRCQQTHNYQLCQDCFWRGHAGGSHSNQHQMKEYTSWKS belongs to which category?
Data returned: lower segment

Data request: Entry KNVFHPVECSYCHSESMMGFRYRCQQCHNYQLCQDCFWRGHAGGSHSNQHQMKEYTSWKS belongs to which category?
Data returned: middle segment

Data request: Entry ENVFHPVECSYCHSESMMGFRYRCQQCHNYQLCQDCFWRGHAGGSHSNQHQMKEHTSWKS belongs to which category?
Data returned: middle segment

Data request: Entry ENVFHPVECSYCHSESMMGFRYRCQQCHNYQLCQDCFWAGHAGGSHSNQHQMKEYTSWKS belongs to which category?
Data returned: upper segment
